Reference for the values: the array DNA melting data of Ke et al. (doi:10.1101/2024.01.08.574731)

experiment: melting temperature; fluorescence melt of hairpins on a sequencing array, two-state fit, raised by 9.35 °C to match UV melts; conditions: sodium 0.088 M
Decide using Tm alone. Strictly below 60 °C: true. Equal to or above 60 °C: false.

sequence chain: GAAGGCGGAAACGTCTTC ((((.((....)).))))
discrete label: true
//
sequence chain: GATCAAGTACTTGATC ((((((....))))))
discrete label: true
//
sequence chain: GCGTGTGGACGC ((((....))))
discrete label: true
//
sequence chain: CGTTCGGAAACGAACACG ((((((....)))..)))
discrete label: true
//
sequence chain: GATCCTCGATAGGATC ((((((....))))))
discrete label: true
//
sequence chain: GATCCTGTCAGGATC ((((((...))))))
discrete label: true
//
sequence chain: GCAACGCGAAAGCGGCGC ((..(((....)))..))
discrete label: false
//
sequence chain: GCCGTCCGAAAGGAAGGC (((.(((....))).)))
discrete label: false
//
sequence chain: GTGTATGGAAACATATGC (..((((....))))..)
discrete label: true
//
sequence chain: GATCGCCTCCGCGATC ((((((....))))))
discrete label: false
//
sequence chain: CGCGGACCTTCCGCG ((((((...))))))
discrete label: false

###

assay: melting temperature; fluorescence melt of hairpins on a sequencing array, two-state fit, raised by 9.35 °C to match UV melts; settings: sodium 0.088 M
Tm overview

sequence chain: GCCAAGCGAAAGCTTAGC ((.((((....)))).))
Tm / °C: 48.9
//
sequence chain: GTCACTCGAAAGAGCGAC (((.(((....))).)))
Tm / °C: 51.5
//
sequence chain: CGGCCGGAAACGGGTCCG ((((((....)))..)))
Tm / °C: 50.4
//
sequence chain: GGCACCGAAAGGTCAGCC ((((((....)))..)))
Tm / °C: 49.2
//
sequence chain: GCGAGAGGTCGC ((((....))))
Tm / °C: 50.9
//
sequence chain: GATCCACCTTGGATC ((((((...))))))
Tm / °C: 51.2
//
sequence chain: GATCTGGCGTCAGATC ((((((....))))))
Tm / °C: 50.9
//
sequence chain: GCGGAAAGCCGC ((((....))))
Tm / °C: 48.5

###

experiment: melting temperature; fluorescence melt of hairpins on a sequencing array, two-state fit, raised by 9.35 °C to match UV melts; conditions: sodium 0.088 M

sequence chain: GCTTTGGAAACAAAGC ((((((....))))))
Tm, °C: 57.4

sequence chain: GATCTCGCGCGAGATC ((((((....))))))
Tm, °C: 62.5

sequence chain: GAATACGAAAGTATTTC ((((((....))).)))
Tm, °C: 38.3

sequence chain: GATCATTTCATGATC ((((((...))))))
Tm, °C: 51.8

sequence chain: GCCTAGCGAAAGCTCAGC ((..(((....)))..))
Tm, °C: 34.7

sequence chain: ATGGTGAAAACCAT (((((....)))))
Tm, °C: 47.1

sequence chain: GCTTGTGGAAACGTAAGC ((((..(....)..))))
Tm, °C: 36.6

sequence chain: GATCCCTAACGGGATC ((((((....))))))
Tm, °C: 57.6

sequence chain: GACACAGGAAACTGTACC (..((((....))))..)
Tm, °C: 25.1

sequence chain: GATCTCATGTGAGATC ((((((....))))))
Tm, °C: 52.9

sequence chain: GCCCAAGGAAACTTGAGC ((.((((....)))).))
Tm, °C: 37.7

sequence chain: GCATAGCGAAAGCTCCGC ((..(((....)))..))
Tm, °C: 32.6

sequence chain: GATCTTTAATAAGATC ((((((....))))))
Tm, °C: 40.9

sequence chain: GCCCCCGAAAGGGTCGGC ((((((....)))..)))
Tm, °C: 50.4

sequence chain: GCTAAGCGAAAGCCTCGC ((.(.((....)).).))
Tm, °C: 29

sequence chain: GATCACAAAGTGATC ((((((...))))))
Tm, °C: 61

sequence chain: GGACATGGAAACACGTCC ((((.((....)).))))
Tm, °C: 42.7

sequence chain: GGGATGGGAAACCATTCC ((.((((....)))).))
Tm, °C: 50.2

sequence chain: GTTCACGAAAGTGAAC ((((((....))))))
Tm, °C: 68.4

sequence chain: GCTGAGACGAAAGTCAGC (((..(((....))))))
Tm, °C: 49.1

sequence chain: GTGTAACGAAAGTTCCAC (((.(((....))).)))
Tm, °C: 38.9

sequence chain: GATCGTCAAGACGATC ((((((....))))))
Tm, °C: 58.7

sequence chain: GGGTTCGAAAGAAGACCC ((((((....)))..)))
Tm, °C: 41.8

sequence chain: GAGCGCACGAAAGTGCTC (((..(((....))))))
Tm, °C: 38.1

sequence chain: GATCTAGCTATAGATC ((((((....))))))
Tm, °C: 47.7

sequence chain: GATCCCATAGGGGATC ((((((....))))))
Tm, °C: 60.4

sequence chain: GCTTTCGAAAGAAAAGC ((((((....))).)))
Tm, °C: 46.6

sequence chain: GGAGGTGGAAACGCTTCC (((.(.(....).).)))
Tm, °C: 34.3

sequence chain: GTTGTGCGAAAGCAAAAC (((.(((....))).)))
Tm, °C: 48.7

sequence chain: GTGTACACGAAAGTGCAC (((..(((....))))))
Tm, °C: 47.1
